Value source: PubChem BioAssay AID2216

System: Ran GTPase (GTP-bound) - importin-beta complex
ASSAY REMARKS: disruptors of Ran-importin-beta complex formation – biochemical, FRET, CFP-Ran, YFP-importin-beta, homogeneous, primary screen (AID 2216);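 note: 0% = DMSO wells and 100% = Ran loaded with GDP instead of GTP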
TEST CONDITIONS: cell-free CFP-Ran/YFP-importin-beta FRET ratio; concentration not given here
The campaign covered roughly 300,000 compounds. About 3,300 (1.1%) were called active. Another 6% or so got no clear call; they are omitted.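 Rule for the calls: active = more than half of the replicate wells show a fall in the fluorescence ratio signal beyond about 16% (limit read from the data, passing the limit was not always enough); inconclusive = exactly half of the replicate wells pass the set limit; inactive = fewer than half of replicates pass the limit.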 Shown is part of a subset that was picked to be rich in actives.
The categories you may choose from are true (1) for active, false (0) for inactive

Known results for compounds:
COMPOUND	CLASSIFICATION
Cc1nc2ccccc2c(=O)n1-c1ccc(F)c(NC(=O)c2cccs2)c1	false (0)
Cn1c(NC(=O)c2ccccc2)nc2ccccc21	false (0)
Cc1ccc(-n2nc3cc(Cl)c(NC(=O)c4ccco4)cc3n2)cc1	false (0)

Call for entry CN(CC(=O)NCc1cccnc1)S(=O)(=O)c1cc(Cl)ccc1Cl :
false (0)

State the result this test recorded for C=CCSc1nnc2c(n1)-c1cccc3cccc-2c13 .
false (0)

Field: outcome | Entry: COc1ccc(/C=N/Nc2cc(N3CCOCC3)nc(C)n2)c(OC)c1
false (0)

Each compound tested received a call. Report the one for Cn1c(-c2ccc(C(=O)c3ccccc3)s2)nc2ccccc21 .
true (1)

For Cc1ncc(CO)c(/C=N/NC(=O)c2cccc(S(=O)(=O)N3CCCC3)c2)c1O , which call appears in the assay record?
true (1)
